Test system: MDA-MB-435
Test: NCI tumour cell line growth inhibition, 48 h
The source made the active and inactive calls. No stated cut-off is given here; in the data, active = GI50 up to about 1.1 µM and inactive = higher.
OBSERVABLE: GI50

Consider the reported GI50 for these compounds:
C[C@H](c1ccccc1)N1C(=O)[C@@H](O)[C@H]1[C@H](CO)OCc1ccccc1 : > 100 µM (inactive)
Cc1cc(S(=O)(=O)Nc2nc3ccccc3nc2-c2ccc(Cl)cc2)c(S)cc1Cl : 17.3 µM (inactive)
Nc1nc(N)c2ncn(-c3ccccc3)c2n1 : > 100 µM (inactive)
CCOC(=O)c1ccc(Nc2nc3ccc(C(F)(F)F)cc3nc2-c2ccccc2)cc1 : > 100 µM (inactive)
C/C(=C\CO)CC[C@@H]1[C@@]2(C)CCCC(C)(C)[C@@H]2CC[C@@]1(C)O : 18.3 µM (inactive)
CC(O)C1(CNc2cc(Cl)nc(N)n2)CCCCC1 (stereo not given) : > 100 µM (inactive)
C[C@@H]1OC(=O)/C(=C\N(C)C)[C@H]2CC(=O)N(CCc3cn(S(=O)(=O)C(F)(F)F)c4ccccc34)C[C@H]12 : > 100 µM (inactive)
CC(=O)OCC1OC(n2c(C#N)cc(=O)[nH]c2=O)CC1OC(C)=O (stereo not given) : > 100 µM (inactive)

# input Quick one: GI50 for O=C1C(=c2cc3c(c4ccccc24)=NC24CCCCC2C(c2ccccc2)C=C(c2ccccc2)N34)C(=O)c2ccccc21 (stereo not given) ?
# output 22 µM (inactive)

# input Quick one: GI50 for `CCOP(=O)(C/C=C/Cn1ncc(=O)[nH]c1=O)OCC` ?
# output > 100 µM (inactive)
